B1: CCND1 (parent)
chain: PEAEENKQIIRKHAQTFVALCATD

# Variants of: B1
# measurement-notes: protein stability index of a GFP-peptide fusion (GPS, HEK-293T) (PSI 1-6); higher = more stable;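 also: lentivirally expressed fusions sorted by FACS into six bins by GFP to DsRed ratio, PSI derived from sequencing read proportions per bin multiplied by bin number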
# conditions-used: c terminus: a fixed tail appended
Param threshold (3) applies to protein stability index; output Met when value >= threshold, Not met when value < threshold.

seq: PEAAENKQIIRKHAQTFVALCATD [E4A]
label: Not met

seq: PEAEENKQIIRKHAQTFVQLCATD [A19Q]
label: Not met

seq: PELEENKQIIRKHAQTFVALCATD [A3L]
label: Not met

seq: PEAEENKQIIRKHAQTFVALCLTD [A22L]
label: Not met

seq: PEAEENKQIIRKHAQTFNALCATD [V18N]
label: Met

In the following, a different variant is considered.
## Task Has PEAEENKQIERKHAQTFVALCATD [I10E] a recorded protein stability index greater than or equal to 3?
## Result Met
